biological target: Cdc42; experiment: GTPase panel EC50 shift with labeled GTP level, profiling panel, mechanism study, biochemical, four GTPases, bead flow cytometry (AID 743330); conditions: bead-based flow cytometry, fluorescent GTP binding to GTPases, EC50 at 25 nM fluorescent GTP
ENDPOINT NAME: EC50 (nM)

{"STRUCTURE NOTATION": "CC1(C)Cc2c(sc(NC(=S)NC(=O)c3ccc(F)cc3)c2C(=O)O)CO1", "UNIT OF MEASURE": "nM", "REPORTED MEASUREMENT": 248}

====

molecular target: Cdc42 mutant; assay: GTPase panel EC50 shift with labeled GTP level, profiling panel, mechanism study, biochemical, four GTPases, bead flow cytometry (AID 743330); details: bead-based flow cytometry, fluorescent GTP binding to GTPases, EC50 at 25 nM fluorescent GTP
pEC50: −log10 of the molar value.
ENDPOINT NAME: pEC50

{"COMPOUND": "CCC1(C)Cc2c(sc(NC(=S)NC(=O)c3ccccc3)c2C(=O)O)CO1 (configuration not stated)", "SYSTEM TESTED": "Cdc42 mutant", "REPORTED MEASUREMENT": 7.92}
{"COMPOUND": "CC1(C)Cc2c(sc(NC(=S)NC(=O)c3ccc(F)cc3)c2C(=O)O)CO1", "SYSTEM TESTED": "Cdc42 mutant", "REPORTED MEASUREMENT": 6.92}

====

Each entry below carries its reported pEC50.
target: Cdc42 mutant; experiment: GTPase panel EC50 shift with labeled GTP level, profiling panel, mechanism study, biochemical, four GTPases, bead flow cytometry (AID 743330); details: bead-based flow cytometry, fluorescent GTP binding to GTPases, EC50 at 100 nM fluorescent GTP
pEC50: −log10 of the molar value.
ENDPOINT NAME: pEC50

{"COMPOUND": "CCC1(C)Cc2c(sc(NC(=S)NC(=O)c3ccccc3)c2C(=O)O)CO1 (configuration not stated)", "ENDPOINT NAME": "pEC50", "REPORTED MEASUREMENT": 7.57}
{"COMPOUND": "CC1(C)Cc2c(sc(NC(=S)NC(=O)c3ccc(F)cc3)c2C(=O)O)CO1", "ENDPOINT NAME": "pEC50", "REPORTED MEASUREMENT": 6.01}

====

// reported pEC50 per item
molecular target: Cdc42; test: GTPase panel EC50 shift with labeled GTP level, profiling panel, mechanism study, biochemical, four GTPases, bead flow cytometry (AID 743330); conditions: bead-based flow cytometry, fluorescent GTP binding to GTPases, EC50 at 100 nM fluorescent GTP
pEC50: −log10 of the molar value.
ENDPOINT NAME: pEC50

{"COMPOUND": "CCC1(C)Cc2c(sc(NC(=S)NC(=O)c3ccccc3)c2C(=O)O)CO1 (configuration not stated)", "ENDPOINT NAME": "pEC50", "REPORTED MEASUREMENT": 7.70}
{"COMPOUND": "CC1(C)Cc2c(sc(NC(=S)NC(=O)c3ccc(F)cc3)c2C(=O)O)CO1", "ENDPOINT NAME": "pEC50", "REPORTED MEASUREMENT": 5.98}

====

target: Ras; assay: GTPase panel EC50 shift with labeled GTP level, profiling panel, mechanism study, biochemical, four GTPases, bead flow cytometry (AID 743330); conditions: bead-based flow cytometry, fluorescent GTP binding to GTPases, EC50 at 25 nM fluorescent GTP
pEC50: −log10 of the molar value.

{"COMPOUND": "CC1(C)Cc2c(sc(NC(=S)NC(=O)c3ccc(F)cc3)c2C(=O)O)CO1", "pEC50": 7.18}
{"COMPOUND": "CCC1(C)Cc2c(sc(NC(=S)NC(=O)c3ccccc3)c2C(=O)O)CO1 (configuration not stated)", "pEC50": 8.22}

Reference source: PubChem BioAssay AID743330
